Tested on: P388 leukemia ip, CD2F1 mice, survival T/C
Assay: NCI In Vivo Anticancer Drug Screen. Data for tumor model P388 Leukemia (intraperitoneal) in CD2F1 (CDF1) mice
Settings: endpoint: median survival time; dose: 100.0 mg/kg/injection; schedule: Q04DX003 (ip); vehicle: saline with Tween-80; higher = longer survival
Procedure: The antitumor activity of compounds was measured in mice bearing transplantable tumors. Survival or tumor size were measured and the results are expressed as the measurement made in the treated group (T) divided by the measurement made in the vehicle treated control group (C). The tumor model used in this assay is P388 Leukemia (intraperitoneal) in CD2F1 (CDF1) mice
Inconclusive results and toxic doses are left out.
The entries below come with measured T/C values attached.
METRIC: T/C

CC(CCC(=O)O)C1CCC2C3CCC4CC(OC=O)CCC4(C)C3CC(OC=O)C12C (configuration not stated); 100 % of control
NC(Cc1ccc([N+](=O)[O-])cc1)C(=O)O (configuration not stated); 104 % of control
COc1cc(C2NC(=S)NC2=S)ccc1O (configuration not stated); 109 % of control
CCN(CC)CCCC(C)Nc1c2ccc(Cl)cc2nc2cc(N=Nc3cccc4ccccc34)c(OC)cc12 (configuration not stated); 118 % of control
CCCCCCCCCCCCCCCCC1(C)c2ccccc2N(C)C12C=Cc1cc([N+](=O)[O-])ccc1O2 (configuration not stated); 103 % of control
COCCCNS(=O)(=O)c1ncnc2nc[nH]c12; 108 % of control
Cn1cc(O)c(=O)n(C)c1=O; 99 % of control
C[N+](C)(C)C1CCC2CCCCC2C1 (configuration not stated); 98 % of control
C=C1CC2CCC1C2 (configuration not stated); 100 % of control
CN(Cc1cnc2nc(N)nc(N)c2n1)c1c(Cl)cc(C(=O)NC(CCC(=O)O)C(=O)O)cc1Br (configuration not stated); 170 % of control
Cn1nnnc1NN(c1nnnn1C)C1C=CCC=C1; 99 % of control
CC1CCCCC1NC(=O)NCCOC(=O)OCCNC(=O)NC1CCCCC1C (configuration not stated); 90 % of control

###

System: P388 leukemia ip, CD2F1 mice, survival T/C
Assay: NCI In Vivo Anticancer Drug Screen. Data for tumor model P388 Leukemia (intraperitoneal) in CD2F1 (CDF1) mice
Conditions: endpoint: median survival time; dose: 200.0 mg/kg/injection; schedule: Q04DX002 (ip); vehicle: saline with Tween-80; higher = longer survival
Toxic doses and inconclusive results are not listed.
METRIC: T/C

COC(=O)C12CCC(CC1C13CCCC(C)(C)C1C(=O)OC3)C(C)C2O (stereo not drawn); 94 % of control
CCCCNC(=S)NC(c1ccc(OC)cc1)C(CC)c1ccc(OC)cc1 (stereo not drawn); 88 % of control
COC(=O)C1CC(c2ccccc2)N(C(C)(C)C)O1 (stereo not drawn); 100 % of control
CC1C(=O)OC2C1CCC1(C)C=C(Cl)C(=O)C(C)(Cl)C21O (stereo not drawn); 100 % of control
COc1cc(OC2OC(CO)C(O)C(O)C2O)ccc1/C=C\C(=O)c1ccc(O)cc1 (stereo not drawn); 90 % of control
CCNCC1c2ccccc2-c2nc3ccccc3nc2-c2ccccc21; 98 % of control
COc1ccc2c(c1)CCc1c(N)ncnc1-2; 106 % of control
CCCC1CCC(=C2C(=O)CCC2=O)O1 (stereo not drawn); 102 % of control
O=c1[nH]c2n[nH]c(=S)n2c2c1CCC2; 99 % of control
COc1cc(-c2oc3c(OC)cc(OC)c(O)c3c(=O)c2OC)cc(OC)c1OC; 105 % of control
Cc1cc(C)n(C2=NC3(C)NC(=O)NC3(C)N2)n1 (stereo not drawn); 98 % of control
COc1ccc(C2c3cc4c(cc3OC(O)C2C)OCO4)c(OC)c1 (stereo not drawn); 97 % of control
Cc1noc(C)c1C1(Br)C(Br)CCCC1Br (stereo not drawn); 104 % of control
